Hey, just so you know, these numbers are from paper PMC2816707.

Molecular target: T1, Recombinant human VEGF165 (human, UniProt P15692-4, strain)
T1 construct: also called human vascular endothelial growth factor-A; VEGF-A165; source: bought: Shanghai Primegene Bio-Tech Co. and R&D System
Experiment: ELISA; VEGF/VEGFR-2 interaction ELISA: 5 µg/ml Fc-VEGFR-2 (ECD) coated; antibody pre-incubated 1 hour with recombinant human VEGF (0.5 µg/ml final) before transfer to the plate; bound VEGF detected by a mouse anti-VEGF165 monoclonal antibody; triplicates
Conditions: both partners purified
ASSAY METRIC: pIC50
Numbers only, as −log10 of the molar value.

Guide cases for pIC50, answers given:
BINDER: anti-VEGF RabMAb EBV320 (antibody, V domains shown, also called 320H/320L; source: 293-6E cells, L and H chain plasmids co-transfected, purified (protein A)) VH: QSLEESGGDLVKPGASLTLTCTASGFSFSNNAVMCWVRQAPGKGLEWIGCIMTTDVVTEYANWAKSRFTVSKTSSTTVTLQMTSLTVADTATYFCARDSVGSPLMSFDLWGPGTLVTVSS VL: LVMTQTPASVSAAVGGTVTINCQASQNLYNNNELSWYQQKPGQPPKLLIYWASTLASGVPSRFKGSGSGTQFTLTISGVQCADAATYYCAGYKSYSNDGNGFGGGTEVVVK
pIC50: 8.48
--
BINDER: anti-VEGF RabMAb EBV307 (antibody, V domains shown, also called 307H/307L; source: 293-6E cells, L and H chain plasmids co-transfected, purified (protein A)) VH: QSVEESGGGLVKPGGTLTLTCTVSGFSFSNNDVMCWVRQAPGKGLEWIGCIMTTDVVTAYANWAKSRFTVSRTSSTTVTLQVTSLTVADTATYFCARDSVGSPLMSFDLWGPGTLVTVSS VL: LVMTQTPASVSAAVGGTVTINCQASQSVYGNNELSWYQQKPGQRPKLLIYRASTLASGVPSRFSGSGSGTQFTLTISGVQCFDAATYYCSGYKSYYNDGSGFGGGTEVVVK
pIC50: 8.58
--
BINDER: anti-VEGF RabMAb EBV302 (antibody, V domains shown, also called 302H/302L; source: 293-6E cells, L and H chain plasmids co-transfected, purified (protein A)) VH: QSLEESGGDLVKPGASLTLTCTASGFSFSNNAVMCWVRQAPGKGLEWIGCIMTTDVVTEYANWAKSRFTVSKTSSTTVTLQMTSLTVADTATYFCARDSVGSPLMSFDLWGPGTLVTVSS VL: LVMTQTPASVSAAVGGTVIINCQASQNLYNNNELSWYQQKPGQPPKLLIYWASTLASGVPSRFKGSGSGTQFTLTISGVQCADAATYYCAGYKSYSNGGNGFGGGTEVVVK
pIC50: 7.60

We now examine a further binder.
Query: pIC50 lookup needed for anti-VEGF RabMAb EBV321 (antibody, V domains shown, also called parental EBV321; source: 293-6E cells, L and H chain plasmids co-transfected, purified (protein A)) VH: QSLEESGGDLVKPGASLTLSCTASGFSFSNNDVMCWVRQAPGKGLEWIGCIMTTDVVTEYANWAKSRFTVSKTSSSTVTLQLTSLTVADTATYFCARDSVGSPLMSFDLWGPGTLVTVSS VL: LVMTQTPASVSAAVGGTVTINCQASQSVYGNNELSWYQQKPGQPPKLLIYRASTLASGVPSRFSGSGSGTQFTLTISGVQCADAATYYCGGYKSYSNDGNGFGGGTEVVVK , thanks.
Result: 9.25
